# System: Beet Armyworm (Spodoptera exigua)
# protocolDetails: Insecticidal diet-surface test for beet armyworm
# Format: in vivo
# assayContext: 120 h, second-instar larvae on treated diet, 50 μg/cm^2 on diet surface, 5 days after treatment, 8 insects per treatment, read-out: LAPHEG AVG % Mortality (50 μg/cm^2)
# Procedure: The compounds identified in Table 1 were tested against beet armyworm and corn earworm as follows: Insecticidal Test for Corn Earworm (Helicoverpa zea) and Beet Armyworm (Spodoptera exigua). To prepare test solution, the test compound was formulated at 2000 ppm solution as 4 mg/2 mL of 9 acetone:1 tap water. […] The number of dead insects of 8 per species per treatment was then determined and the results are given in Table 2 as a percent control at a dose of […].
observable: mortality at 50 µg/cm2 (%)
Give your result in % as a bare value.

>>> observedresult("CN(C(=O)Nc1cc(C(F)(F)F)cc(OCC(F)(F)F)n1)c1ccc(Br)nc1 [Compound 169]")
100
>>> observedresult("COCN(C(=O)Nc1nc(OCC(F)(F)F)cc(OCC(F)(F)F)n1)c1ccc(OC(F)(F)F)cc1 [Compound 45]")
100
>>> observedresult("COCN(C(=O)Nc1nc(OCC(F)(F)F)cc(OCC(F)(F)F)n1)c1ccc(C(F)(F)F)cc1 [Compound 39]")
100
>>> observedresult("CN(C(=O)Nc1nc(OCC(F)(F)F)cc(OCC(F)(F)F)n1)c1ccc(I)cn1 [Compound 126]")
100
>>> observedresult("CN(C(=O)Nc1nc(OCC(F)(F)F)cc(OCC(F)(F)F)n1)c1ccc(Cl)nc1 [Compound 48]")
100

Enquiry: Form entry - test system: Beet Armyworm (Spodoptera exigua); read-out: mortality at 50 µg/cm2; compound: CN(C(=O)Nc1nc(OCC(F)(F)F)cc(OCC(F)(F)F)n1)c1cc(F)c(Br)cc1F [Compound 182]
Return: 100

Enquiry: Value wanted: mortality at 50 µg/cm2 (Beet Armyworm (Spodoptera exigua)) of entry CN(C(=O)Nc1nc(OCC(F)(F)F)cc(OCC(F)(F)F)n1)c1ccc(C(F)(F)F)c(F)c1 [Compound 154]
Return: 100

Enquiry: Short answer please: mortality at 50 µg/cm2, Beet Armyworm (Spodoptera exigua), entry CON(C(=O)Nc1nc(OCC(F)(F)F)cc(OCC(F)(F)F)n1)c1ccc(Cl)cc1 [Compound 65]
Return: 100

Enquiry: What measured mortality at 50 µg/cm2 is associated with CN(C(=O)Nc1nc(OCC(F)(F)F)cc(OCC(F)(F)F)n1)c1ccc(SC(F)(F)F)cc1 [Compound 80] on Beet Armyworm (Spodoptera exigua)?
Return: 100

Enquiry: Record lookup: for Beet Armyworm (Spodoptera exigua), what mortality at 50 µg/cm2 belongs to CCOc1cc(OCC(F)(F)F)nc(NC(=O)N(C)c2ccc(Br)cc2)n1 [Compound 103] ?
Return: 25
